- ASSAY PROCEDURE: Quantitative highthroughput screen to assess conditional lethalithy of SEM cells grown in RPMI1640 with dialyzed fetal bovine serum (RPMI+ds) (AID 1963884); further: potency means the concentration at half of the fitted maximal effect; nearly all actives have a fitted effect of over 35% in size
- TEST SETTINGS: SEM B-ALL cells, RPMI+dialyzed FBS, CellTiter-Glo viability, 48 h; series mostly up to 45.8 µM
Results filed as inconclusive are left out. The source made the active and inactive calls. The call rests on the fitted dose curve; in most records, active means well fitted cell-killing curve with a large enough effect; inconclusive means small, poorly fitted or top-dose-only effect, or effect the other way; inactive means no such curve, though single readings can be large or run the other way.
Answer each item with its documented Potency.

CC(C)(O)C=CC(=O)[C@](C)(O)[C@H]1[C@H](O)C[C@]2(C)[C@@H]3CC=C4[C@@H](C=C(O)C(=O)C4(C)C)[C@]3(C)C(=O)C[C@@]12C = 66.2 nM (active)

Please report Potency for every entry that follows.
1. CC(C)[C@]12O[C@@H]1[C@@H]1O[C@]13[C@]1(O[C@H]1C[C@@H]1C4=C(CC[C@@]13C)C(=O)OC4)[C@H]2O
2. O=P1(NCCCl)OCCCN1CCCl (centres undefined)
3. CC[C@@]1(O)C(=O)OCc2c1cc1n(c2=O)Cc2cc3ccccc3nc2-1

1. 1.2 nM (active)
2. 20900 nM (active)
3. 26.4 nM (active)

---

- ASSAY PROCEDURE: Quantitative highthroughput screen to assess conditional lethalithy of P12 Ichikawa cells grown in RPMI1640 with untreated serum (RPMI+s) (AID 1963881); further: nearly all actives have a fitted effect of over 35% in size
- TEST SETTINGS: ATP luminescence, 48 h; viability; series mostly up to 45.8 µM
Records with an inconclusive call do not appear. Activity calls are given as the source filed them. Calls follow the shape of the dose curve; as a rule, active = well fitted cell-killing curve with a large enough effect; inconclusive = small, poorly fitted or top-dose-only effect; inactive = flat fitted curve, though single readings scatter.
Result category, one only: active, inactive

Here are 3 molecules together with their reported answers.
COc1ccc(CC2NCCc3cc(OC)c(OC)cc32)cc1OC (configuration not stated) = inactive
C[C@@H]1C[C@@H]([C@H](O)CC2CC(=O)NC(=O)C2)C(=O)[C@@H](C)C1 = active
Oc1ccc2c3c1O[C@H]1c4[nH]c5c(c4C[C@@]4(O)[C@@H](C2)N(CC2CC2)CC[C@]314)C[C@@]1(O)[C@H]2Cc3ccc(O)c4c3[C@@]1(CCN2CC1CC1)[C@H]5O4 = inactive

Could you check what this test reported for CNCC(O)c1ccc(O)cc1 (configuration not stated) ? inactive

Could you check what this test reported for CC(=O)Nc1ccc(OC[C@](C)(O)C(=O)Nc2ccc([N+](=O)[O-])c(C(F)(F)F)c2)cc1 ? inactive

Could you check what this test reported for C[C@]12CC[C@@H]3[C@@H](CCC4=CC(=O)CC[C@@H]43)[C@@H]1CC[C@@H]2OC(=O)CCc1ccccc1 ? inactive

Could you check what this test reported for C[C@@H]1[C@H](O)[C@@H](C)C=CC=CCCC=CC=CC=CC=C[C@H](O[C@H]2O[C@@H](C)[C@H](O)[C@@H](N)[C@@H]2O)CC2O[C@](O)(C[C@@H](O)[C@H](O)CC[C@@H](O)C[C@@H](O)C[C@@H](O)CC(=O)O[C@H]1C)C[C@H](O)[C@H]2C(=O)O ? inactive

---

- ASSAY PROCEDURE: Viability qHTS for spleen associated tyrosine kinase inhibitor (SYKi) drug resistant MV4-11 cells (AID 1963824); further: nearly all actives have a fitted effect of over 35% in size
- TEST SETTINGS: SYKi-resistant MV4-11 viability, CellTiter-Glo, 72 h; series mostly up to 45 µM
Results filed as inconclusive are left out. Activity calls are given as the source filed them. Calls come from the whole dose curve; as a rule, active = well fitted cell-killing curve with a large enough effect; inconclusive = small, poorly fitted or top-dose-only effect, or effect the other way; inactive = no such curve, though single readings can be large or run the other way.
Result category, one only: active, inactive

C=C(C)[C@@]12O[C@@H]1[C@@]1(C)C(=CC2=O)CC[C@@H](OC(C)=O)[C@@H]1C = active
COC12C(COC(N)=O)C3=C(C(=O)C(C)=C(N)C3=O)N1CC1C2N1C (stereo not drawn) = active
COC1CC(OC2CCC3(C=O)C(CCC4C3CCC3(C)C(C5=CC(=O)OC5)CCC43O)C2)OC(C)C1OC1OC(CO)C(O)C(O)C1O (stereo not drawn) = active
CC1=CC2OC3CC(O)[C@](C)([C@@]2(C)C(O)C1=O)[C@]31CO1 (stereo partly drawn) = active
CCCC[N+]1(C)[C@@H]2CC(OC(=O)[C@H](CO)c3ccccc3)C[C@H]1[C@@H]1O[C@@H]12 (stereo partly drawn) = inactive
CCOC(=O)Nc1ccc(NCc2ccc(F)cc2)cc1N = active
Cn1ncnc1COc1nn2c(-c3c(F)cccc3F)nnc2cc1C1CCC1 = inactive
C[C@@]12OC(=O)[C@]1([C@@H](O)[C@@H]1C=CCCC1)NC(=O)[C@@H]2CCCl = active
CC(C)N(CCC(C(N)=O)(c1ccccc1)c1ccccn1)C(C)C (stereo not drawn) = inactive
C=C1CC[C@@]2(O)[C@H]3Cc4ccc(O)c5c4[C@@]2(CCN3CC2CC2)[C@H]1O5 = inactive

Could you check what this test reported for CC1=CC(=O)[C@@H](O)[C@]2(C)C3[C@@H](O)[C@@H]4OC(=O)[C@@H]([C@H]4C)[C@]3(C)C(=O)C[C@@H]12 (stereo partly drawn) ? active

Could you check what this test reported for CC1C/C=C/C(O)C(O)CC/C=C/c2cc(O)cc(O)c2C(=O)O1 (stereo not drawn) ? active

Could you check what this test reported for CCC1(c2ccc(N)cc2)CCC(=O)NC1=O (stereo not drawn) ? inactive

Could you check what this test reported for COc1cc2c(cc1F)C(c1ccccc1Cl)=Nc1c(n[nH]c1C)N2 ? active

Could you check what this test reported for CC(C)(C)c1cc(C(C)(C)C)c2c(c1)C(O)(C(F)(F)F)C(=O)O2 (stereo not drawn) ? inactive

Could you check what this test reported for O=C1OC(c2ccc(O)c(S(=O)(=O)O)c2)(c2ccc(O)c(S(=O)(=O)O)c2)c2c(Br)c(Br)c(Br)c(Br)c21 ? inactive

Could you check what this test reported for CC(C)C(Br)C(=O)NC(N)=O (stereo not drawn) ? inactive

Could you check what this test reported for C/C=C(\C)C(=O)N[C@@H](c1ccccc1)[C@@H](O)C(=O)O[C@H]1C[C@@]2(O)[C@@H](OC(=O)c3ccccc3)[C@@H]3[C@]4(OC(C)=O)CO[C@@H]4C[C@H](O)[C@@]3(C)C(=O)[C@H](OC(C)=O)C(=C1C)C2(C)C ? active
